# TEST_METHOD_NOTES: Pharmacokinetics in septic shock patients, two-compartment population pharmacokinetic model
# Format: in vivo, human
# CONDITION: human, in vivo, intravenous, 2.5 ng/kg.min, N=17, modelled, mean (SD), SD, read-out: Terminal elimination half-life (converted)
Positions of bridges follow the written chain, without caps; N, C: chain ends. Non-standard residues stand in square brackets, D forms with d. Residues, ends and D or L forms follow the SMILES beside them. Orn(iPr) = CC(C)NCCC[C@H](N)C(=O)O; Aad = N[C@@H](CCCC(=O)O)C(=O)O
QUANTITY_KIND: half-life (h)
Answers are plain numbers, in h.

Please look up its half-life: CC[C@H](C)[C@@H]1NC(=O)[C@H](Cc2ccccc2)NC(=O)[C@@H](N)CSSC[C@@H](C(=O)N2CCC[C@H]2C(=O)N[C@@H](CCCNC(C)C)C(=O)NCC(N)=O)NC(=O)[C@H](CC(N)=O)NC(=O)[C@H](CCCC(N)=O)NC1=O [selepressin] (H-CFI[Aad](NH2)NCP[Orn(iPr)]G-NH2; disulfide 1-6)
2.7
